- TARGET_ENTITY: FGF receptor (FGFr)
- PROCEDURE_DETAILS: FGFr tyrosine kinase activity, poly E4Y / 32P-ATP phosphorylation assay
- Type: biochemical
- EXPERIMENTAL_CONTEXT: Table 2, Formula I compounds; NI = no inhibition at 100 μg/mL
READOUT: IC50 (µM)

MOLECULE	TARGET_ENTITY	RESULT_VALUE
Cc1ccc(S(=O)(=O)Nc2cc(Sc3ccc(Cl)cc3)c([N+](=O)[O-])cc2NS(=O)(=O)c2ccc(C)cc2)cc1 [Compound 4e]	FGF receptor (FGFr)	1.7
Cc1ccc(S(=O)(=O)Nc2cc(Sc3c(C)cccc3C)c([N+](=O)[O-])cc2NS(=O)(=O)c2ccc(C)cc2)cc1 [Compound 4m]	FGF receptor (FGFr)	4.7
Cc1ccc(S(=O)(=O)Nc2cc(Sc3cccc(Cl)c3)c([N+](=O)[O-])cc2NS(=O)(=O)c2ccc(C)cc2)cc1 [Compound 4g]	FGF receptor (FGFr)	5.8
Cc1ccc(S(=O)(=O)Nc2cc(SCc3ccc(Cl)cc3)c([N+](=O)[O-])cc2NS(=O)(=O)c2ccc(C)cc2)cc1 [Compound 4q]	FGF receptor (FGFr)	2.7
COc1cccc(Sc2cc(NS(=O)(=O)c3ccc(C)cc3)c(NS(=O)(=O)c3ccc(C)cc3)cc2[N+](=O)[O-])c1 [Compound 4c]	FGF receptor (FGFr)	7.5
Cc1ccc(Sc2cc(NS(=O)(=O)c3ccc(C)cc3)c(NS(=O)(=O)c3ccc(C)cc3)cc2[N+](=O)[O-])cc1 [Compound 4i]	FGF receptor (FGFr)	5.1

All figures here come from patent US20060004197A1.
